IC50 reference
Molecular target: T1, extracellular domain of human CD73 protein (CD73-ECD), C-terminus polyhistidine-tagged (UniProt P21589 27-547)
T1 chain: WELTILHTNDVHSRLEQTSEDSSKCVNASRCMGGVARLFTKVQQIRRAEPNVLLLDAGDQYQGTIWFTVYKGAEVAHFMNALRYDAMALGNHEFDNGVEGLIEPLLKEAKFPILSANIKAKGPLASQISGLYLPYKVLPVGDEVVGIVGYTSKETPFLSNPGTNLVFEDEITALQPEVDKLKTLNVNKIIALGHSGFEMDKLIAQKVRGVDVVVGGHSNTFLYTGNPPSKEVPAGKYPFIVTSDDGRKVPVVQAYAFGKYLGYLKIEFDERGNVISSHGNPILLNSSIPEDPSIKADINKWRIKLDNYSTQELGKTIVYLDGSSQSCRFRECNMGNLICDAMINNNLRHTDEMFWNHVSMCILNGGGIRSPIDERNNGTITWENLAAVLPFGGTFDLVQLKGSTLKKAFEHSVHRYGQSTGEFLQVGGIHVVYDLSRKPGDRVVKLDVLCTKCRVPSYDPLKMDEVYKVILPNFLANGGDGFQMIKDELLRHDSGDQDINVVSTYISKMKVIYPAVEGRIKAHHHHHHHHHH
Test: enzyme inhibition; right table
Respond numerically; units are pM and should not be typed.

mAb002c (antibody, V domains shown) VH: QVQLQQPGAELVKPGASVRLSCKASGYTLTSYWMHWVKKRPGQGLEWIGEINPSNGRSNYNEKFKSKATLTVDRSSSTVYMQLGSLTSEDSAVYYCARRGVSGNYFDYWGQGTTLTVSS VL: DIKMTQSPSSMYASLGERVTMTCKASQDINTYLSWFQQKPGKSPKTLIYRSNILVDGVPSRFSGSRSGQDYYLTITSLEYEDMGIYYCLQYDEFPYTFGGGTKLELK = 38
Hu001c-32 (antibody, V domains shown) VH: QVQLVQSGAEVKKPGASVKVSCKASGYTFTNYYIYWVKQRPGQRLEWIGWIYPGNLNIKYNEKFKGRSTLTADKSASTAYMELSSLRSEDTAVYYCARDDNYAWFAYWGQGTLVTVSS VL: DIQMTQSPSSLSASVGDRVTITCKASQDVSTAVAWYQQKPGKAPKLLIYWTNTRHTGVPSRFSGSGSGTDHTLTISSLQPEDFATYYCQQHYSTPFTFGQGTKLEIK = 70

Now, please, on to the next binder.
Can you share its IC50? I mean this binder: Hu002c-16 (antibody, V domains shown) VH: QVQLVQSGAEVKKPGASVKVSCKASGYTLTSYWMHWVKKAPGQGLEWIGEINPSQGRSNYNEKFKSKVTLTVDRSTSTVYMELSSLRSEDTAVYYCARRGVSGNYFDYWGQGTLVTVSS VL: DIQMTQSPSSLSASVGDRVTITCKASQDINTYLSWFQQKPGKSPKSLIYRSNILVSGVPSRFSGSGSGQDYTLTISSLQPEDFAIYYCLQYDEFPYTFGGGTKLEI
68

FYI, the data here is from patent US20210024646A1.
